# Assay explanation: Measurement of solubility (shaking at 37° C., UHPLC)
# Assay type: physicochemical
# Test context: JP1 solution (sodium chloride/hydrochloric acid in water), 37 °C, pH 1.2, simulated gastric fluid, thermodynamic from solid, JP1 (pH about 1.2), shaking at 37° C. for 24 hours; unit inferred; read-out: Solubility JP1
# Method: With regard to the measurement of solubility, solubility was calculated by the following operations. […] The solutions obtained 30 minutes and 24 hours after initiation of the shaking were promptly filtered through a membrane filter (pore diameter: 0.45 μm), and the obtained filtrates were each diluted with a sample solution to an appropriate concentration. The concentration of a compound in the filtrate was measured by UHPLC, and solubility was then calculated. […]
Observation type: solubility at 24 h
Output should be the measured figure followed by the unit it is expressed in.

Exercise: Specify reported solubility at 24 h for the compound shown: CCN([C@H]1CC[C@H](C(=O)O)CC1)S(=O)(=O)c1cccc(C(=O)Nc2ccc(N3CCCCC3)cc2C(=O)Nc2ccc(CCc3ccc(C(=O)O)cc3)cc2)c1 [Example 1, trihydrate]
Solution: 1.3 µg/mL
